# EXPERIMENTAL TARGET: SULT1A3 spin-labeled at Cys 198 (Homo sapiens, UniProt P0DMM9, E198C)
# Sequence (P0DMM9 whole entry E198C): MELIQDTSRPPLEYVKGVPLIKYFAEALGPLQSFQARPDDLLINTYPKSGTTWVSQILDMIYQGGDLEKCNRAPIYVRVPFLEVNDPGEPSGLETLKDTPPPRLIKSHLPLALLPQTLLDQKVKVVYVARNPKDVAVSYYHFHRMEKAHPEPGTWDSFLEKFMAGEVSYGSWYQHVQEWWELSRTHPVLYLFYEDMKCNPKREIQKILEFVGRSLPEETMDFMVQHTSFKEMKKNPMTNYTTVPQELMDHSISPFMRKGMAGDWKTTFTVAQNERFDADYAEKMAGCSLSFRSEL
# EXPERIMENT DESCRIPTION: Initial-rate parameters, spin-labeled SULT1A3 mutant 198
ATTRIBUTE MEASURED: Ki (nM)
One number for each entry, in nM.

GET /value?item= `CC(C)Cc1ccc2cc(CO)ccc2n1` &field=Ki returns 46

* * *

# EXPERIMENTAL TARGET: SULT1A3 (Homo sapiens, UniProt P0DMM9)
# Sequence (P0DMM9 whole entry): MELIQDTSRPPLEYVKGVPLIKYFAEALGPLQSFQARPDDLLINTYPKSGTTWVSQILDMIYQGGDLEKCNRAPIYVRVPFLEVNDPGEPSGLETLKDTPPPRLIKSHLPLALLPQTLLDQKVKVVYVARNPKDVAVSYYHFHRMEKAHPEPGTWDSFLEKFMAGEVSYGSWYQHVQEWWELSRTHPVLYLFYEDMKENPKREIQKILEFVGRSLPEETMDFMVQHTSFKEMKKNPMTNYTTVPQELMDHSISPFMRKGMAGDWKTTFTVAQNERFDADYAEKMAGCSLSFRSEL
# EXPERIMENT DESCRIPTION: SULT1A3 inhibition studies, 1-HP initial-rate fluorescence assay
# Type: biochemical
# Parameters: Wild-type and mutant SULT1A3 coding regions were inserted into a pGEX-6P expression vector; N-His/GST/MBP triple-tag (N, cleaved yes); made in house; host or cells: E. coli BL21(DE3)
# REPORTED CONDITIONS: standard error in neighbouring cell; read-out: Human (1A3) Ki
Provide the recorded Ki for the entries that follow.
Give bare numbers, in nM.

Would you please look over these solved cases?
CC(C)Cc1ccc2cc(/C=C/C(N)=O)cnc2n1 [Compound 23] :: 9.6
CC(C)Cc1ccc2cc(CCC(N)=O)cnc2n1 [Compound 25] :: 17

Next, consider the following compound.
For record CC(C)Cc1ccc2cc(CCC(N)=O)ccc2n1 [Compound 12] the listed Ki is 50
